- Tested System: Acetylcholinesterase (Rattus norvegicus)
- Sequence (P37136 whole entry): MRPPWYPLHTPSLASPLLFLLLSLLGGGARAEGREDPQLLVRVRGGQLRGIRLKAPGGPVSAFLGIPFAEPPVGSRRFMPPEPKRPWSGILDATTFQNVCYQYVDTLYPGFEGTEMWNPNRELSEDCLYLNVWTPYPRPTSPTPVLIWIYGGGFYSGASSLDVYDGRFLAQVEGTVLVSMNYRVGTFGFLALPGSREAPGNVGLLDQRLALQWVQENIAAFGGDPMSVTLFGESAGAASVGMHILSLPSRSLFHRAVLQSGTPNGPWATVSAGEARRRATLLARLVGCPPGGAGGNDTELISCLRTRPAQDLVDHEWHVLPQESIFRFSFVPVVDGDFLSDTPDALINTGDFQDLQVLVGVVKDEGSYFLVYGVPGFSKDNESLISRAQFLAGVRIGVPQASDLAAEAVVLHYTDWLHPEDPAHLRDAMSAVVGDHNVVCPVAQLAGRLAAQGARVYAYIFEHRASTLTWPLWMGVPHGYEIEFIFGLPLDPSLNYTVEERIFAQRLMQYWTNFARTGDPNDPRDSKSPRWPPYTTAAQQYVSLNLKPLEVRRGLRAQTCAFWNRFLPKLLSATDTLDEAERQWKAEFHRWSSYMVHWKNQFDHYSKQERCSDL
pIC50: −log10 of the molar value.
Use rule met when the recorded pIC50 is no lower than 7; use rule not met when it is lower.

Examples from the recorded data:
1. CC1=C[C@H]2Cc3[nH]c(=O)ccc3[C@@]3(C1)[C@@H]2CCCN3C(=O)CN(C)CCCCCCCCN(C)CC(=O)N1CCC[C@@H]2[C@H]3C=C(C)C[C@]21c1ccc(=O)[nH]c1C3 rule met
2. CC1=C[C@H]2Cc3[nH]c(=O)ccc3[C@@]3(C1)[C@@H]2CCCN3C(=O)CN(C)CCCCCCCCCCCCN(C)CC(=O)N1CCC[C@@H]2[C@H]3C=C(C)C[C@]21c1ccc(=O)[nH]c1C3 rule met
3. CC1=C[C@H]2Cc3[nH]c(=O)ccc3[C@@]3(C1)[C@@H]2CCCN3C(=O)CN(C)CCCCCCCCCCN(C)Cc1ccncc1 rule met
4. CC1=C[C@H]2Cc3[nH]c(=O)ccc3[C@@]3(C1)[C@@H]2CCCN3C(=O)CN(C)CCN(C)CC(=O)N1CCC[C@@H]2[C@H]3C=C(C)C[C@]21c1ccc(=O)[nH]c1C3 rule not met
5. CC1=C[C@H]2Cc3[nH]c(=O)ccc3[C@@]3(C1)[C@@H]2CCCN3C(=O)CN(C)CCCCCCCCN(C)Cc1ccccn1 rule met

API: above_or_equal(metric=pIC50, cutoff=7) for item "CC1=C[C@H]2Cc3[nH]c(=O)ccc3[C@@]3(C1)[C@@H]2CCCN3C(=O)CN1CCCN(CC(=O)N2CCC[C@@H]3[C@H]4C=C(C)C[C@]32c2ccc(=O)[nH]c2C4)CC1"
rule not met

Ok, now "CC1=C[C@H]2Cc3[nH]c(=O)ccc3[C@@]3(C1)[C@@H]2CCCN3C(=O)CN(C)CCCCCCCCN(C)Cc1ccc(F)cc1"
rule met

Ok, now "CC1=C[C@H]2Cc3[nH]c(=O)ccc3[C@@]3(C1)[C@@H]2CCCN3CCCN1CCCN(CCCN2CCC[C@@H]3[C@H]4C=C(C)C[C@]32c2ccc(=O)[nH]c2C4)CC1"
rule not met

Ok, now "CC1=C[C@H]2Cc3[nH]c(=O)ccc3[C@@]3(C1)[C@@H]2CCCN3C(=O)CCN(C)CCCCCCN(C)CCC(=O)N1CCC[C@@H]2[C@H]3C=C(C)C[C@]21c1ccc(=O)[nH]c1C3"
rule met

Ok, now "CC1=C[C@H]2Cc3[nH]c(=O)ccc3[C@@]3(C1)[C@@H]2CCCN3CCCN(C)CCCCCCN(C)CCCN1CCC[C@@H]2[C@H]3C=C(C)C[C@]21c1ccc(=O)[nH]c1C3"
rule met

Ok, now "CC1=C[C@H]2Cc3[nH]c(=O)ccc3[C@@]3(C1)[C@@H]2CCCN3CCCN(C)CCCCCCCCN(C)CCCN1CCC[C@@H]2[C@H]3C=C(C)C[C@]21c1ccc(=O)[nH]c1C3"
rule met
